Kindly supply the reported TGI values for the records listed here.
- Test system: DU-145 prostate
- experimental details: NCI tumour cell line growth inhibition, 48 h

Query :: Given "COc1ccc(C(=O)O[C@@H]2CCN3CC[C@H](C)[C@H]23)cc1" , state its recorded TGI.
Result :: > 100 µM

Query :: Given "O=C1/C(=C\c2ccc(Cl)cc2)CN(C(=O)c2ccccc2)C/C1=C\c1ccc(Cl)cc1" , state its recorded TGI.
Result :: > 56.4 µM

Query :: Given "Oc1c(Nc2ccccc2)cc2c3c1N=NC=3CCN=2" , state its recorded TGI.
Result :: > 100 µM

Query :: Given "Clc1ccc(-c2cn3c(nc4ccccc43)c(/C=C/c3cccs3)n2)cc1" , state its recorded TGI.
Result :: > 100 µM

Query :: Given "Fc1cc(C2=Nn3c(nnc3-c3cc(F)c(Cl)cc3Cl)SC2)c(Cl)cc1Cl" , state its recorded TGI.
Result :: > 100 µM

Query :: Given "Cc1cc(C)c2c(=O)cc(-c3ccc(F)cc3)[nH]c2n1" , state its recorded TGI.
Result :: > 100 µM

Query :: Given "CC(=O)c1cc2sc3ccccc3c2[nH]1" , state its recorded TGI.
Result :: > 100 µM

Query :: Given "O=C(Nn1c(-c2ccccc2)nc2ccccc2c1=O)c1ccc([N+](=O)[O-])cc1" , state its recorded TGI.
Result :: > 100 µM

Query :: Given "COc1ccc(-c2nc(SCC(=O)N/N=C/c3ccc([N+](=O)[O-])cc3)[nH]c2-c2ccc(OC)cc2)cc1" , state its recorded TGI.
Result :: > 100 µM

Query :: Given NCCSC1(O)C(=O)c2ccccc2-c2ccccc21 (stereo unspecified) , state its recorded TGI.
Result :: 2.28 µM

Query :: Given "O=C(O)[C@@]1(Cc2ccc(O)cc2)C[C@@H]2Cc3ccccc3N2N1" , state its recorded TGI.
Result :: > 100 µM

Query :: Given CCN(CC)CCC1CCCCN1CC(=O)N1c2ccccc2NC(=O)CC1C (stereo unspecified) , state its recorded TGI.
Result :: > 100 µM

Query :: Given "COCN1C(=O)[C@@H]2CCCN2C(=O)c2ccc(Cl)cc21" , state its recorded TGI.
Result :: > 100 µM

Query :: Given "COc1ccc(NS(=O)(=O)c2ccc3ncn(NS(=O)(=O)c4ccc(I)cc4)c(=O)c3c2)cc1" , state its recorded TGI.
Result :: > 100 µM

Query :: Given "COc1cccc(Nc2ncnn3ccc(CN4CC[C@@H](N)[C@H](O)C4)c23)c1" , state its recorded TGI.
Result :: > 100 µM

Query :: Given "CCCc1c(O)c2ccccc2[nH]c1=O" , state its recorded TGI.
Result :: > 100 µM

Query :: Given CC(C)c1ccc2c(c1)CCC1C(C)(CN)CCCC21C (stereo unspecified) , state its recorded TGI.
Result :: 3.33 µM

Query :: Given "Cc1ccc([N+](=O)[O-])cc1S(=O)(=O)Nc1ccc(C(=O)/C=C/c2ccccc2)cc1" , state its recorded TGI.
Result :: 29.5 µM

Query :: Given "Cc1cc(N(C)C)ccc1N=Nc1ccc2ncccc2c1" , state its recorded TGI.
Result :: > 100 µM

Query :: Given C=CC(Br)(CBr)CCC1OC1(C)C (stereo unspecified) , state its recorded TGI.
Result :: 59.8 µM

Query :: Given CCOC(=O)C(CC(C)C)NC(=O)C(N)Cc1ccc(N(CCCl)CCCl)cc1 (stereo unspecified) , state its recorded TGI.
Result :: 47.1 µM

Query :: Given "O=C(NCCCNc1cc(-c2cn(-c3ccccc3)nc2-c2cccc(O)c2)ccn1)c1ccc(F)cc1" , state its recorded TGI.
Result :: 53.4 µM

Query :: Given C=C1CC2(C)CCC(OC(=O)C3(C)OC3C)C(C)(OC(C)=O)C2CC1=C(C)C (stereo unspecified) , state its recorded TGI.
Result :: > 100 µM

Query :: Given "COc1cc(S(=O)(=O)Nc2ccc(-c3csc(/N=C\c4ccccc4O)n3)cc2)ccc1Cl" , state its recorded TGI.
Result :: > 100 µM

Query :: Given "COc1cc(C)cc(C(=O)OCc2ccccc2)c1C1=C(Cl)C(=O)C(Cl)=CC1=O" , state its recorded TGI.
Result :: > 10 µM

Query :: Given CC(=O)OCC(OC(C)=O)C(OC(C)=O)C(/C=N\Nc1nc2ccccc2c(=O)[nH]1)OC(C)=O (stereo unspecified) , state its recorded TGI.
Result :: > 100 µM

Query :: Given CC(C)C1=CC23CCC4C(C)(C(=O)O)CCCC4(C)C2CC1C1C(=O)N(c2ccc(N4C(=O)C5C6CC7C8(C)CCCC(C)(C(=O)O)C8CCC7(C=C6C(C)C)C5C4=O)cc2)C(=O)C13 (stereo unspecified) , state its recorded TGI.
Result :: 16.6 µM

Query :: Given CC1(C)CCCCC1/C=C/C(CC(O)(C(F)(F)F)C(F)(F)F)=N\Nc1ccc([N+](=O)[O-])cc1[N+](=O)[O-] (stereo unspecified) , state its recorded TGI.
Result :: 13.4 µM

Query :: Given "N[C@@H]1c2c(Br)sc(Br)c2C(=O)[C@H]1Br" , state its recorded TGI.
Result :: > 100 µM

Query :: Given CC(=O)OC12c3ccccc3C(c3ccccc31)C1C(=O)N(Nc3ccccc3)C(=O)C12 (stereo unspecified) , state its recorded TGI.
Result :: > 100 µM

Query :: Given "Cc1cn2c(/C=N/NC3=NCCN3)c(-c3ccc(Cl)c([N+](=O)[O-])c3)nc2s1" , state its recorded TGI.
Result :: 1.89 µM

Query :: Given "O=C(/C=C/c1cccnc1)c1ccccc1" , state its recorded TGI.
Result :: 26.9 µM

Query :: Given Cc1nn(C(=O)c2ccc(Cl)cc2)c2c1C(c1ccccc1)SC(N)=N2 (stereo unspecified) , state its recorded TGI.
Result :: > 10 µM

Query :: Given "Oc1c(CCl)cc(Cl)cc1Cc1cc(Cl)cc(Cc2cc(Cl)cc(CCl)c2O)c1O" , state its recorded TGI.
Result :: 37.1 µM

Query :: Given "CCN1C2=C(SC(=S)C1=C1SC(C(=O)c3ccccc3)=C(C(=O)c3ccccc3)S1)SC(=Nc1ccccc1)C2=O" , state its recorded TGI.
Result :: > 100 µM

Query :: Given Cc1ccc(OC2CC(n3cnc4c(=O)[nH]c(Br)nc43)OC2Oc2ccc(C)cc2)cc1 (stereo unspecified) , state its recorded TGI.
Result :: 53.9 µM

Query :: Given "CSc1nc(SC)c2c(C)cn(Cc3ccccc3)c2n1" , state its recorded TGI.
Result :: > 100 µM

Query :: Given "Cc1ccc(C)n1-n1c(Cc2ccc(Cl)cc2)n[nH]c1=O" , state its recorded TGI.
Result :: > 100 µM

Query :: Given "CCOC(=O)C(=O)N=Nc1c(O)[nH]c2ccccc12" , state its recorded TGI.
Result :: > 100 µM

Query :: Given "Cc1ccc(C2=NN=C3C(c4ccccc4)=Nc4ccccc4N3C2)cc1" , state its recorded TGI.
Result :: 32.3 µM

Query :: Given CN1CCC2(CC1)C(=O)N(NC(N)=O)C(=O)C2c1ccccc1 (stereo unspecified) , state its recorded TGI.
Result :: > 100 µM

// data source = PubChem BioAssay (NCI)
